Listed below: koff values for each entry.
Biological target: Human BCMA (human) (UniProt Q02223)
Experiment: SPR, IgG immobilised, huBCMA analyte, 37 C

| binder | koff / s⁻¹ |
| --- | --- |
| L3.PY/L3.KF/H3.TAQ (antibody, V domains shown, IgG) VH: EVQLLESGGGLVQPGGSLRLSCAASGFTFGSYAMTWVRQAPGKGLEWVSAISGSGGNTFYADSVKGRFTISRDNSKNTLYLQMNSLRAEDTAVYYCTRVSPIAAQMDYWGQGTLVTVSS VL: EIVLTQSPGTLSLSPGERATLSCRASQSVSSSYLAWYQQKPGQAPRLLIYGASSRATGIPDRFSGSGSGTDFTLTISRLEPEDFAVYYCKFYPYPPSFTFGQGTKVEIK | 0.00162 |
| L3.PY/L3.KF/H2.LT (antibody, V domains shown, IgG) VH: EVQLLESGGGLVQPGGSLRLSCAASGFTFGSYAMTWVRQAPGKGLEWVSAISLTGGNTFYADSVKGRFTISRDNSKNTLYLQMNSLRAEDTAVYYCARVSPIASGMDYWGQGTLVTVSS VL: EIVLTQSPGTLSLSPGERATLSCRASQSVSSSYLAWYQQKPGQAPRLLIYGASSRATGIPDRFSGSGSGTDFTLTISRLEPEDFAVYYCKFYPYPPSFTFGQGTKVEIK | 0.00191 |
| L3.PY/L1.FF/H2.YQ (antibody, V domains shown, IgG) VH: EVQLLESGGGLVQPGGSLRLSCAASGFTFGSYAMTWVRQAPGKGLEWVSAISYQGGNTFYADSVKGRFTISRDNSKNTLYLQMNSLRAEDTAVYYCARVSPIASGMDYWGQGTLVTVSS VL: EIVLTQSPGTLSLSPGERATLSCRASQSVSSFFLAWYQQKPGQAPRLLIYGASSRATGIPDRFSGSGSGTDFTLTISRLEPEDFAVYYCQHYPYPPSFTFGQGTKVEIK | 0.00152 |
| L3.PY/L1.PH/H3.AQ (antibody, V domains shown, IgG) VH: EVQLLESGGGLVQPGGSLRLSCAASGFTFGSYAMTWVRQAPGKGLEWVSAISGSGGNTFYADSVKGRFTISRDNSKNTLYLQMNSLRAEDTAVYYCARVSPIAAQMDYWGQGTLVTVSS VL: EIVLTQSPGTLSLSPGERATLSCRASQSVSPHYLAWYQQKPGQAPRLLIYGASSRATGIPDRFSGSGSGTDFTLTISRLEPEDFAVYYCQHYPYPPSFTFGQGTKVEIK | 0.00159 |
